So I've got pKd readings for KIT, take a look.
pKd: −log10 of the molar value.
ASSAY_READOUT: pKd

COMPOUND	RECORDED_VALUE
Cc1ccc(NC(=O)Nc2ccccc2F)cc1-c1ccc(C(=O)Nc2ccncc2)cc1 [GSK1398477]	6.35
COc1cccc(NC(=O)Nc2ccc(C)c(-c3ccc(C(=O)Nc4ccncc4)cc3)c2)c1 [GSK1398474]	7.14
Cc1ccc(NC(=O)Nc2ccc(Cl)cc2)cc1-c1ccc(C(=O)Nc2ccncc2)cc1 [GSK1398472]	6.85
Cc1cnc(N)c(/C=C/c2cncc(C(=O)NCCc3ccc(Cl)cc3Cl)c2)c1.Cl [GSK190937]	6.82

###

Below: a set of entries, each annotated with reported %Inh.
# Test system: SGK
# CONDITION_SUMMARY: concentration: 1 μM, replicates: in singlicate; n = 1
ASSAY_READOUT: %Inh (%)

COMPOUND	RECORDED_VALUE
CC(C)c1ccc(O)cc1Nc1ccnc2ccc(C(F)(F)F)cc12 [GW482059]	7
Cn1cncc1C(=O)NC1CCN(c2ccnc(Nc3ccc(F)cc3)n2)C1 (stereo not drawn) [GSK1379717]	14
Cc1cccc2c(-c3ccncn3)c(-c3ccc(F)cc3)nn12 [GW515532]	12
CCn1c(-c2c(N)noc2C)nc2cnccc21 [SB-737856]	0
Fc1ccc(-c2nn3cccc(F)c3c2-c2ccncc2)cc1 [GW475620]	0
NS(=O)(=O)c1cccc(N/C=C2\C(=O)Nc3ccc(S(=O)(=O)Cc4c(Cl)cccc4Cl)cc32)c1 [GSK398099]	0
CNC(=O)c1ccc(C)c(-n2c(C)cc(OCc3ccc(F)cc3F)c(Br)c2=O)c1	0
O=C(Nc1n[nH]c2nc(-c3cccs3)c(Br)cc12)C1CC1 [SB-735297]	26
CC(=O)c1cccc(NC(=O)NC2CCN(c3ccnc(Nc4ccc(F)cc4)n3)C2)c1 (stereo not drawn) [GSK1379710]	18

###

# System: CSNK1G1
ASSAY_READOUT: Kd

COc1cccc(C2=C(Nc3cc(Cl)c(O)c(Cl)c3)C(=O)NC2=O)c1 > 10 µM

###

Below: a set of entries, each annotated with reported %Inh.
# Test system: TAK1
# Construct: gene MAP3K7
# CONDITION_SUMMARY: concentration: 1 μM, replicates: in singlicate; n = 1

MOLECULE	UNIT_TEXT	%Inh
O=C(Nc1n[nH]c2nc(-c3ccco3)c(Br)cc12)C1CCN(Cc2ccccc2)C1.O=C(O)[C@H](O)[C@@H](O)C(=O)O (stereo not shown) [SB-742034]	%	22
Cn1cncc1C(=O)NC1CCN(c2ccnc(Nc3ccc(F)cc3)n2)C1 (stereo not shown) [GSK1379717]	%	0
CS(=O)(=O)CCNCc1nc(-c2ccc3ncnc(Nc4ccc5c(cnn5Cc5ccccc5)c4)c3c2)cs1.Cl.Cl [GW569716]	%	0
CCCCc1nn2ncccc2c1-c1ccnc(NC2CC2)n1 [GW684374]	%	0
CCn1c(-c2ccccc2)nc2cnccc21 [SB-733416]	%	0
COc1ccc(CSc2nnc(-c3ccc4nccn4c3)o2)cc1C(F)(F)F	%	33
CNCc1ccc2nc(NC(=O)c3ccc(C(C)(C)C)cc3)cn2c1	%	20
Cn1cnc2c(N)ncnc21 [SKF-97623]	%	0
COc1ccc(CSc2nnc(-c3ccc4ncsc4c3)o2)cc1C(F)(F)F	%	0
COc1cccc(NC(=O)Nc2ccc(C)c(-c3ccc(C(=O)Nc4ccncc4)cc3)c2)c1 [GSK1398474]	%	0
CC(=O)c1c(C)c2cnc(Nc3ccc(N4CCNCC4)cn3)nc2n(C2CCCC2)c1=O	%	28
Nc1ncnc2occ(-c3ccc4c(c3)CCN4C(=O)Cc3cc(F)ccc3F)c12 [GSK2645446]	%	17
c1ccc(-c2ccnc3[nH]ccc23)cc1 [SB-693578]	%	11
COc1cc2ncnc(Nc3cccc(Br)c3)c2cc1OC.Cl [GI230329]	%	0
O=C(Nc1n[nH]c2cc(-c3ccsc3)ccc12)C1CC1 [SB-732932]	%	7
CC(C)c1ccc(O)cc1Nc1ccnc2ccc(C(F)(F)F)cc12 [GW482059]	%	0
CC(C)c1cc(-c2ccc3c(N)n[nH]c3c2)nc(N)n1 [GSK2250882]	%	1
COc1ccc(Nc2nccc(N3CCC(NC(=O)c4cc5ccccc5s4)C3)n2)cc1 (stereo not shown) [GSK1379738]	%	0
Cc1ccc(NC(=O)c2ccc(Cl)cc2)cc1-c1ccc(C(=O)Nc2ccncc2)cc1 [GSK1398467]	%	0

###

# System: TGFBR2
# CONDITION_SUMMARY: concentration: 1 μM, replicates: in singlicate; n = 1
ASSAY_READOUT: %Inh

COMPOUND	RECORDED_VALUE
COc1cccc(C2=C(Nc3cc(Cl)c(O)c(Cl)c3)C(=O)NC2=O)c1 [SB-390767]	30%
CCn1c(-c2c(N)noc2C)nc2cnccc21 [SB-737856]	0%
Cc1c(Cn2c3ccccc3n3c(=O)cc(N4CCOCC4)nc23)cccc1C(F)(F)F [GSK2306394]	10%
COc1ccc(Nc2nccc(N3CCC(NC(=O)C(C)c4ccc(Cl)cc4)C3)n2)cc1 (stereo not drawn) [GSK1379735]	0%
O=C1NC(=O)C(c2ccc(Cl)cc2)=C1Nc1cccc(Cl)c1 [SB-317651]	8%
Cc1ccc(NC(=O)c2ccc(Cl)cc2)cc1-c1ccc(C(=O)Nc2ccncc2)cc1 [GSK1398467]	0%
Cc1cccc2c(-c3ccncn3)c(-c3ccc(F)cc3)nn12 [GW515532]	23%
CC(C)c1cc(-c2ccc3c(N)n[nH]c3c2)nc(N)n1 [GSK2250882]	0%
Cn1cncc1C(=O)NC1CCN(c2ccnc(Nc3ccc(F)cc3)n2)C1 (stereo not drawn) [GSK1379717]	0%

###

# Test system: TAOK3
# CONDITION_SUMMARY: concentration: 1 μM, replicates: in singlicate; n = 1
Below: a set of entries, each annotated with reported %Inh.

MOLECULE	%Inh [%]
COc1ccc(CSc2nnc(-c3ccc4ncsc4c3)o2)cc1C(F)(F)F	0
Cc1ccc(NC(=O)Nc2ccccc2)cc1-c1ccc(C(=O)Nc2ccncc2)cc1	0
CCn1c(-c2ccccc2)nc2cnccc21	1
CSc1ccc(-c2nc3n(c2-c2ccncc2)CCC3)cc1	9
COc1ccc(Nc2nccc(N3CCC(NC(=O)C(C)c4ccc(Cl)cc4)CC3)n2)cc1 (stereo not drawn)	0
FC(F)(F)c1ccccc1-c1cc(-c2c[nH]nc2-c2ccccn2)ccn1	0
COc1cccc(C2=C(Nc3cc(Cl)c(O)c(Cl)c3)C(=O)NC2=O)c1	29
COc1ccc(CSc2nnc(-c3ccc4nccn4c3)o2)cc1C(F)(F)F	0
Fc1ccc(-c2nc3n(c2-c2ccncc2)CCS3)cc1	0

###

# System: AAK1
# CONDITION_SUMMARY: concentration: 1 μM, replicates: in singlicate; n = 1
Label key: 1 (yes) means %Inh under 8%; 0 (no) means %Inh of 8% or more.

MOLECULE	CLASS_LABEL
COC(=O)C(NC(=O)NC1CCN(c2ccnc(Nc3ccc(F)cc3)n2)C1)c1ccccc1 (centres unmarked) [GSK1379712]	1 (yes)
O=C1NC(=O)C(c2ccc(Cl)cc2)=C1Nc1cccc(Cl)c1 [SB-317651]	1 (yes)
Cn1cncc1-c1cc2c(Nc3ccc(OCc4ccccc4)cc3)ncnc2cn1 [GW281179]	0 (no)
CNc1nc(-c2ccc3c(N)n[nH]c3c2)cc(N2C[C@@H](C(=O)NC3CCCCC3)OC[C@H]2C)n1 [GSK2375584]	0 (no)
O=C(Nc1n[nH]c2nc(-c3ccco3)c(Br)cc12)C1CCN(Cc2ccccc2)C1.O=C(O)[C@H](O)[C@@H](O)C(=O)O (centres unmarked) [SB-742034]	0 (no)
Nc1cccc(-c2ccc3c(N)n[nH]c3c2)n1 [GSK2192730]	0 (no)
O=c1cc(N2CCOCC2)nc2n(Cc3ccccc3F)ccn12 [GSK2297428]	1 (yes)
COc1ccc(Nc2nccc(N3CCC(NC(=O)C(C)c4ccc(Cl)cc4)C3)n2)cc1 (centres unmarked) [GSK1379735]	0 (no)
Cc1nccc(-c2c(-c3ccc(F)cc3)ncn2CCCN2CCOCC2)n1.Cl [SB-282975]	1 (yes)
Fc1ccc(-c2nn3cccc(F)c3c2-c2ccncc2)cc1 [GW475620]	0 (no)
COc1ccc(CSc2nnc(-c3ccc4ncsc4c3)o2)cc1C(F)(F)F	0 (no)
Cn1cncc1C(=O)NC1CCN(c2ccnc(Nc3ccc(F)cc3)n2)C1 (centres unmarked) [GSK1379717]	0 (no)
CNc1nc(-c2ccc3c(N)n[nH]c3c2)cc(N2C[C@@H](C(=O)Nc3ccccc3)CC[C@H]2C)n1 [GSK2298859]	0 (no)
CNC(=O)c1ccc(C)c(-n2c(C)cc(OCc3ccc(F)cc3F)c(Br)c2=O)c1	1 (yes)
Cc1ccccc1-c1cc(-c2c[nH]nc2-c2ccccn2)ccn1 [GW680061]	1 (yes)
CSc1ccc(-c2nc3n(c2-c2ccncc2)CCC3)cc1 [SKF-105561]	1 (yes)
Fc1ccc(-c2nc3n(c2-c2ccncc2)CCS3)cc1 [GI98581]	1 (yes)
O=c1cc(N2CCOCC2)nc2n(Cc3cccc(Cl)c3Cl)c3ccccc3n12 [GSK2299009]	0 (no)
CCn1c(-c2ccccc2)nc2cnccc21 [SB-733416]	1 (yes)
CCn1c(-c2c(N)noc2C)nc2cnccc21 [SB-737856]	1 (yes)
O=C1NC(=O)C(c2ccc(Cl)cc2)=C1Nc1ccc(O)cc1 [SB-340867]	1 (yes)
O=C(Nc1n[nH]c2cc(-c3ccsc3)ccc12)C1CC1 [SB-732932]	0 (no)
CS(=O)(=O)Cc1ccc(Nc2nccc(-c3c(-c4cccc(NC(=O)C5CCCCC5)c4)nn4ncccc34)n2)cc1 [GSK350559]	1 (yes)
CC(=O)c1c(C)c2cnc(Nc3ccn(C)n3)nc2n(C2CCCC2)c1=O	1 (yes)
CS(=O)(=O)CCNCc1nc(-c2ccc3ncnc(Nc4ccc(OCc5ccccc5)c(Cl)c4)c3c2)cs1.Cl [GW582764]	1 (yes)
CNc1cc(-c2ccc3c(N)n[nH]c3c2)nc(N)n1 [GSK2224810]	0 (no)
CCc1ccc(-c2ccc3c(c2)-c2n[nH]cc2S(=O)(=O)N3C)cc1	0 (no)
